Listing of entries alongside the reported MRT inf.
experiment: MRT (0 to infinity) in male CD-1 mouse at 10 mg/kg, ip measured up to 24 hrs by LC-MS/MS analysis; type: ADME, organism-based; conditions: in vivo
Dear colleague, please return just the value in h, with no unit written.

Worked examples, 2 compounds total:
O=C1CCC(N2Cc3ccc(N4CCN(CC5CCN(C(=O)CCCCCCCCNC(=O)c6ccc(O[C@H]7CC[C@H](NC(=O)Nc8ccc(OC(F)(F)F)cc8)CC7)cc6)CC5)CC4)cc3C2=O)C(=O)N1 (stereo partly drawn) ... 9.3
O=C1CCC(N2C(=O)c3ccc(N4CCN(CC5CCN(C(=O)CCCCCCCCNC(=O)c6ccc(O[C@H]7CC[C@H](NC(=O)Nc8ccc(OC(F)(F)F)cc8)CC7)cc6)CC5)CC4)cc3C2=O)C(=O)N1 (stereo partly drawn) ... 17

Now consider the entry below.
query: Report MRT inf, nothing else, for this compound: O=C1CCC(N2C(=O)c3ccc(N4CCN(CC5CCN(C(=O)CCCCCCCCC(=O)N6CCC(NC(=O)Nc7ccc(OC(F)(F)F)cc7)CC6)CC5)CC4)cc3C2=O)C(=O)N1 (stereo not drawn)
result: 4
